# credit: the supplement of paper PMC11732987

Target: USP4 (UniProt Q13107)
Sequence (whole entry): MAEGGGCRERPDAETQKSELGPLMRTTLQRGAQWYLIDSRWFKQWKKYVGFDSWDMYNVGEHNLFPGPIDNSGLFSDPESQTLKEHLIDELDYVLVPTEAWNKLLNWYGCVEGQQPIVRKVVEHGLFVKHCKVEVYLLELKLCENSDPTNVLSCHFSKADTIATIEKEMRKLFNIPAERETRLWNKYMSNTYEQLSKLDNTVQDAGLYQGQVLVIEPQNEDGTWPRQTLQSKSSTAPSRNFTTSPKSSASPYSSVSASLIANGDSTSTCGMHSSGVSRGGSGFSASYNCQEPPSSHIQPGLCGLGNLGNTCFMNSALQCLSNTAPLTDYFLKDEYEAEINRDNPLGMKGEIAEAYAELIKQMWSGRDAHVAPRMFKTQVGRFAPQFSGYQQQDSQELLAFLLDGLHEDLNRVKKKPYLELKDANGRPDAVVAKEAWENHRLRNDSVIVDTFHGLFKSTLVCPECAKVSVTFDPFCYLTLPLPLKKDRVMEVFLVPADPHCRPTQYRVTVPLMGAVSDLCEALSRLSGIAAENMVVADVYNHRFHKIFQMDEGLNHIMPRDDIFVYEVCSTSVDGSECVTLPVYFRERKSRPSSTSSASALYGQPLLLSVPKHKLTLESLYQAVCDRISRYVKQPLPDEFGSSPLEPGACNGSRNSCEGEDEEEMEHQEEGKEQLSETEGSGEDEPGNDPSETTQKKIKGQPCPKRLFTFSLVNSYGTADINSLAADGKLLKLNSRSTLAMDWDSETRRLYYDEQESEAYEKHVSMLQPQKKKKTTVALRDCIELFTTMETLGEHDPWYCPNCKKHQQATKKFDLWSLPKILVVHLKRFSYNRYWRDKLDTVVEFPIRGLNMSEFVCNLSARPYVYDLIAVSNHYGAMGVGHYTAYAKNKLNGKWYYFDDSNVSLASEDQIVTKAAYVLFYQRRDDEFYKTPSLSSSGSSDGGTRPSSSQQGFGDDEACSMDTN
Assay: log2 ratio of Biotin-Ahx-Ub-VS probe labelling (fragment/DMSO); higher = less target engagement (more negative = stronger competition), active = hit call of the paper (q ≤ 0.05, log2 ratio ≤ -1)
Details: compound concentration: 200 uM; treatment time: 3 h
endpoint_name: log2 ratio of Biotin-Ahx-Ub-VS probe labelling
Answer as a number with no unit attached.

Examples with answers:
molecule | result_value
O=C(CCl)NCCc1ccc(F)cc1 | -0.11
O=C(CCl)N(C1CCCC1)C1CCS(=O)(=O)C1 (configuration not stated) | 0.0894
O=C(CCl)NCCC1=CCCCC1 | 0.0999
Cc1ccc(CC(CO)CNC(=O)CCl)cc1 (configuration not stated) | -0.14
Cc1ccc(C)c(Oc2ccc(CNC(=O)CCl)cn2)c1.Cl | -0.39
N#Cc1ccccc1N1CCN(C(=O)CCl)CC1 | -0.61

Okay, now this molecule:
# return recorded log2 ratio of Biotin-Ahx-Ub-VS probe labelling for input CC(NC(=O)CCl)c1cccc(Cl)c1 (configuration not stated)
-0.239
